Kd values for Retinoic acid receptor alpha (Homo sapiens, UniProt P10276) compiled from several publications are listed below.
MEASURED PARAMETER: Kd (nM)

- CPD SMILES: "Cc1ccc(N2CCC(C)(C)c3ccc(C#Cc4ccc(C(=O)O)c(F)c4)cc32)cc1"
  SYSTEM UNDER TEST: "Retinoic acid receptor alpha (Homo sapiens, UniProt P10276)"
  UNIT OF MEASURE: "nM"
  TEST VALUE: 101

(1) CC(C)(C)c1cc(C(=O)Nc2ccc(C(=O)O)cc2)cc(C(C)(C)C)n1
(2) Cc1ccc(C(=O)c2cc(C#Cc3ccc(C(=O)O)c(F)c3)c(C)cc2O)cc1
input: Pick one: 1 or 2 . Which one has the lower reported Kd? In your reply, give the label of the chosen option.
output: 1
(1: 19 nM, 2: 1150 nM)

(P) CC(/C=C/C(F)=C(/C)c1cc2c(c(Br)c1OC(C)C)C(C)(C)CC=C2C(C)(C)C)=C\C(=O)O
(Q) CC1(C)CCSc2ccc(C#Cc3ccc(CCC(=O)O)cc3)cc21
(R) CC(C)(C)c1ccc(C(=O)Nc2ccc(C(=O)O)c(F)c2)cc1Oc1ccc(C(F)(F)F)cc1
(S) C=C(c1ccc(C)cc1)c1cc(C#Cc2ccc(C(=O)O)c(F)c2)ccc1OC(C)C
input: Rank entries according to their Kd, from the largest number down. Reply with the item labels sorted in the order that was asked for.
output: Q, S, P, R

====

Kindly find below Kd information for Retinoic acid receptor alpha (Homo sapiens) taken from the literature.

- CPD SMILES: "CC(/C=C/[C@@H]1C[C@]1(C)c1ccc2c(c1)C(C)(C)CCN2C(=O)OC(C)(C)C)=C\\C(=O)O"
  TEST VALUE: "> 30000 nM"
- CPD SMILES: "CC1(C)CCC(C)(C)c2cc(S(=O)(=O)c3ccc(C(=O)O)cc3)ccc21"
  TEST VALUE: "> 1000 nM"
- CPD SMILES: "CC(/C=C/CC1(c2cc(C(C)(C)C)cc3c2CCC3(C)C)CC1)=C\\C(=O)O"
  TEST VALUE: "> 5000 nM"

Here's the next entry for you.
input: Lookup: Kd / Retinoic acid receptor alpha (Homo sapiens) / `Cc1cc2c(cc1Sc1ncc(C(=O)O)s1)C(C)(C)CCC2(C)C`
output: > 1000 nM

====

The entries below pair molecules with Kd values for Retinoic acid receptor alpha (Homo sapiens, UniProt P10276), as found in several publications.

- CPD SMILES: "CC(/C=C/CC1(c2cc3c(cc2C)C(C)(C)CCC3(C)C)CC1)=C\\C(=O)O"
  TEST VALUE: "> 5 µM"
- CPD SMILES: "C#Cc1cc(C(=O)Oc2ccc(CC(=O)OCOC(C)=O)cc2)cc2c1OC(C)(C)CC2(C)C"
  TEST VALUE: "> 10 µM"

Let us examine a further case.
input: Please give the measured Kd for this molecule: `Cc1cc2c(cc1S(=O)(=O)c1ccc(C(=O)O)cc1)C(C)(C)CCC2(C)C`
output: > 1 µM

====

Here's a roundup of pKd values tested on Retinoic acid receptor alpha (Homo sapiens, UniProt P10276), taken from various published works.
pKd: −log10 of the molar value.

Reference set, count: 2
- CPD SMILES: "C#Cc1cc(C#Cc2ccc(CC(=O)O)c(F)c2)cc2c1OC(C)(C)CC2(C)C"
  pKd: "< 5.00"
- CPD SMILES: "CC(/C=C/CC1(c2ccc3c(c2)C(C)(C)CCC3(C)C)CCCC1)=C\\C(=O)O"
  pKd: "< 5.30"

Would you kindly look at the next entry?
input: I'd like to know its pKd. The molecule in question is `Cc1cc2c(cc1Sc1ccc(C(=O)O)cc1)C(C)(C)CCC2(C)C`
output: < 6.00

====

pKd: −log10 of the molar value.
pKd for Retinoic acid receptor alpha (Homo sapiens), merged from several publications.

input: May I ask what pKd has been recorded for `CC1(C)CC(C)(C)c2cc(C(=O)Oc3ccc(CC(=O)O)cc3)ccc2O1` ?
output: < 5.00

input: Likewise for `O=C(O)c1ccc(C#Cc2ccc(C3(N(Cc4ccccc4)Cc4ccccc4)CC3)cc2)cc1` ?
output: < 5.00

input: Same for COCOC1CCC(C)(C)c2ccc(N=Nc3ccc(C(=O)O)cc3)cc21 (racemic)
output: < 6.00
